These entries and their values trace back to the supplement of paper PMC9170038.

System: K4 kissing-loop RNA reporter;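 further: bound reporter read as fluorescence of individual clusters on recovered sequencing chips by microscopy, with normalized cluster intensities fitted with a binding model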
Assay: apparent KD of K4 kissing-loop reporter; higher = weaker reporter binding
Settings: Eterna round: R107; input ligand: arginine 13.2 mM
apparent KD of K4 kissing-loop reporter below 100 nM gives class 0; apparent KD of K4 kissing-loop reporter at or above it gives class 1.

Tell me whether apparent KD of K4 kissing-loop reporter is at least 100 nM here: ACACUUACACAUGAUACCAGAAUUCUACCGUAAAUAGUAAGUGAUGUUUGCUAACGGCUUUUCCCUUGGCAGCAUGAUCGGUAUU [theeternabot_sameState_KL_Theo_B_43] class 1

Tell me whether apparent KD of K4 kissing-loop reporter is at least 100 nM here: UAUAGAAACGUCCUAUCAAUAAAAUGGGAAGGAGCGAGGAAGAACUCAGGUAGGUCGCCCAAUAACCUUAGUGAUGUUAAGGAAA [Version 1] class 1

Tell me whether apparent KD of K4 kissing-loop reporter is at least 100 nM here: AGUGAUAUAUGAGGAUAUGGGAUUGUUAAUGAGUUAGUUUUAGUGUUGUUUGGUUAGUGAUGUUAUUUAGAAGGCGUGAGUGAUG [kuktrmullin] class 0

Tell me whether apparent KD of K4 kissing-loop reporter is at least 100 nM here: GGGAAGGACGGAGGAUAUGCACUGAGGAGGAGAAUAUAGUGAUGUUAUAUAAGAGGAAGGAGCUGAGUAGAAGGCCGAGGAAAGG [whbob_SS_FMNB__2th207] class 0

Tell me whether apparent KD of K4 kissing-loop reporter is at least 100 nM here: GUAUCGCUAGGAGGAUAUUUCAAUUCGCCUAUAAAUGGUGAUACGGAGUGAUGUUCCGAUUUACGGAAAGAAGGCCUAGUGAUAC [FMN B 8] class 1

---

Tested on: MS2 coat protein
Assay: apparent KD of MS2 coat protein; designed switch direction (-1 OFF switch, 1 ON switch): 1; higher = weaker reporter binding
Conditions: Eterna round: R95; input ligand: none
endpointName: apparent KD of MS2 coat protein (nM)
Only the number, expressed in nM, is required.

Determine its reported apparent KD of MS2 coat protein: AUAAAACAUGAGGAUCACCCAUGUCAACAAUGUCGAGGAUAUGGGCAAAUAAAAUAAGAACCAGAAGGCGAAUAAU [salish99_ss1_r3_039] (puzzle: Same State 1) 507

Determine its reported apparent KD of MS2 coat protein: AUAAGUUCGAUGCUCGUCUUUCCGUACAAACAUGAGGAUCACCCAUGUGAUCGGGAAGUAGCCCGAUCAGUAUGGCC [Leceen] (puzzle: Sensor for hsa-mir-208a) 27.5

Determine its reported apparent KD of MS2 coat protein: AUAAGGCAAGCUUUUUUCUCGUAGUGUAAACAUGAGGAUCACCCAUGUGCCCACCCUGGAUCUUUGGAUCCCAGAAC [Sobeedbeon] (puzzle: Sensor for hsa-mir-208a) 22.4

Determine its reported apparent KD of MS2 coat protein: AUCCUACAUGAGGAUCACCCAUGUGACGCCUCAAUAGGAUAUCGGGCCCACAGUCAGGAACGAGAAGGAUUGAAGC [Digerier] (puzzle: Same State 1) 66.7

Determine its reported apparent KD of MS2 coat protein: AGGGAGGAAGCUGAGGAUAUCGUAAGGAGGACAUGAGGAUCACCCAUGUGUAUAGAAUUGGAGGACGAGAAGGCAGAGGAGUGGG [JR_SS2_Sub052] (puzzle: Same State 2) 25.6
